- MEASUREMENT TARGET: T1, PTPRG, endogenous in H929 multiple myeloma cells (human, UniProt P23470 20-1445)
- T1 construct: Native protein on H929 cells (flow cytometry, siRNA knockdown) and in H929 lysates (IP/MS); also called phosphatase receptor type γ
- T1 sequence (P23470 20-1445 limits assumed): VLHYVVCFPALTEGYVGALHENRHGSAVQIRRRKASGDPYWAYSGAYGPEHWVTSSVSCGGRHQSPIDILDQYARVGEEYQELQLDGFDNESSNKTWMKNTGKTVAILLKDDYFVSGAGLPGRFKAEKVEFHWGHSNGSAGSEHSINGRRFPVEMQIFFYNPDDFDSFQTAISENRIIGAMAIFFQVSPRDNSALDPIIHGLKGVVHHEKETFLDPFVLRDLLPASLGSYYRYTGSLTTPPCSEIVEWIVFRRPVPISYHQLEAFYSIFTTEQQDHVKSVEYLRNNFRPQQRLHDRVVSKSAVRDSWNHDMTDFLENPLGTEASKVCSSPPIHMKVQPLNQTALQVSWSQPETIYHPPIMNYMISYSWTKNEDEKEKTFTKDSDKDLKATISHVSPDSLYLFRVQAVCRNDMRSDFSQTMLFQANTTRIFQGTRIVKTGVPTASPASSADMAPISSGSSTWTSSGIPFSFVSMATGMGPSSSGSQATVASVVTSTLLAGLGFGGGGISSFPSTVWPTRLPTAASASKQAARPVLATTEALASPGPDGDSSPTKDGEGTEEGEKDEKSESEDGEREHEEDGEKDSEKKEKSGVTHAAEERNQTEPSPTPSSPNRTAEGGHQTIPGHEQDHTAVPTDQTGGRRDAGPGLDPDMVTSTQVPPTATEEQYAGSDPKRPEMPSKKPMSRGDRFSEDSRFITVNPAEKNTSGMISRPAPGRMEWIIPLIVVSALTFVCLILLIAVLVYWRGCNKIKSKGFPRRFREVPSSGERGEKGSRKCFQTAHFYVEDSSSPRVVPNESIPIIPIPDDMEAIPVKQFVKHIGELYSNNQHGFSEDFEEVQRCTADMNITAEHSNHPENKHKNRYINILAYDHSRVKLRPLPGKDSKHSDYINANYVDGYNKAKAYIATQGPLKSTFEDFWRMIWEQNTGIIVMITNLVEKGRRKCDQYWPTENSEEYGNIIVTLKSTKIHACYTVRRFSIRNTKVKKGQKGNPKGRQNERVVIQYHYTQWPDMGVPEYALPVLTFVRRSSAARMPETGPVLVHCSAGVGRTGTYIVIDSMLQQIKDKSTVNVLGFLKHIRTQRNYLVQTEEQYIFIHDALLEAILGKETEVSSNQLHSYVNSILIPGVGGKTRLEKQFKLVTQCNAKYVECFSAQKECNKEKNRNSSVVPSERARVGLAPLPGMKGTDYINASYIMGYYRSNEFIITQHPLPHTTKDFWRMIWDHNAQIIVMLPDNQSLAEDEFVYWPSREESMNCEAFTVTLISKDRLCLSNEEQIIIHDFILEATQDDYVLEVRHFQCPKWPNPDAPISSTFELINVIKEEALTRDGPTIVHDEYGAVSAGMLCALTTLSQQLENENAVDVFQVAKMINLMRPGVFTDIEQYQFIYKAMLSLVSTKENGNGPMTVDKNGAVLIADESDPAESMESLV
- ASSAY NOTES: flow cytometry, H929 + ICAM1 siRNA; None 455
Field: label. Allowed values: YES (mAb binding (MFI) < 20000) or NO (mAb binding (MFI) >= 20000).

BINDER | CLASS NAME
HW-70 chimeric rabbit-human IgG1 LA/LA/PG (antibody, V domains shown, Fc-silenced (L234A/L235A/P329G) IgG1, lambda; Alexa Fluor 647-labeled in single-step flow cytometry; Cluster C-1) VH: QSLEESGGRLVTPGTPLTLTCTVSGFSLSSNAMSWVRQAPGKGLEWIGTIDGYGYTYYASWAKGRFTVSKTSTTVDLKITSPTTEDTATYFCAREIYLGSNFWGPGTLVTISS VL: SFVLTQPASVQVNLGQTVSLTCTADTLSRRYASWYQQKPGQAPVLLIYRDTSRPSGVPDRFSGSSSGNTATLTISGAQAGDEADYYCATADGSGSSYQFVFGGGTQLTVTG | YES
HW-25 chimeric rabbit-human IgG1 LA/LA/PG (antibody, V domains shown, Fc-silenced (L234A/L235A/P329G) IgG1, lambda; Alexa Fluor 647-labeled in single-step flow cytometry; Cluster C-1) VH: QSLEESGGRLVTPGTPLTLTCTVSGFSLSSYAMGWVRQAPGKGLEWIGIIDSRGSTYYATWAKGRFTISKTSTTVDLKITSPTTEDTATYFCAREDSYYYDSFNLWGPGTLVTVSS VL: SFVLTQPASVQVNLGQTVSLTCTADTLSRRYASWYQQKPGQAPVLLIYRDTSRPSGVPDRFSGSSSGNTATLTISGAQAGDEADYYCATSDGSGSSYQCVFGGGTQLTVTG | YES
HW-1 chimeric rabbit-human IgG1 LA/LA/PG (antibody, V domains shown, Fc-silenced (L234A/L235A/P329G) IgG1, lambda; Alexa Fluor 647-labeled in single-step flow cytometry; Prototype of cluster C-1) VH: QSLEESGGGLFKPTDTLTLTCTASGFSLGSSYAISWVRQAPGKELEWIGTIDSGRAYYARWAKSRSTITRNTNENTVTLKMTSLTAADTATYFCARDLIPTYSQDIWGPGTLVTISS VL: SFVLTQPASVQVNLGQTVSLTCTADTLSRRYASWYQQKPGQAPVLLIYRDTSRPSGVPDRFSGSSSGNTATLTISGAQAGDEADYYCATSDGSGNSYQYVFGGGTQLTVTS | NO
HW-17 chimeric rabbit-human IgG1 LA/LA/PG (antibody, V domains shown, Fc-silenced (L234A/L235A/P329G) IgG1, lambda; Alexa Fluor 647-labeled in single-step flow cytometry; Cluster C-1) VH: QSLGESRGRLVTPDETLTLTCTVSGIDLSSNAMSWVRQAPGEGLEWIGTINTGGRAYYASWAKGRFTISRTSTTVDLKMTSLTTEDTATYFCARERYSDGRAYDIWGPGTLVTISS VL: SFVLTQPASVQVNLGQTVSLTCTADTLSRRYASWYQQKPGQAPVLLIYTDSNRPSGIPDRFSGSSSGNTATLTISGAQAGDEADYYCATDDGSGSIYQYVFGGGTQLTVTG | NO
HW-42 chimeric rabbit-human IgG1 LA/LA/PG (antibody, V domains shown, Fc-silenced (L234A/L235A/P329G) IgG1, lambda; Alexa Fluor 647-labeled in single-step flow cytometry; Cluster C-1) VH: QSVKESEGGLFKPADTLTLTCTVSGFSLSSNEISWVRQAPGEGLEYIGIIDTGGRAYYAVWARSRSTITRNTNLNTVTLKMTSLTAADTATYFCARGGVDTEWYAFSSWGPGTLVTVPS VL: SFVLTQPASVQVNLGQTVSLTCTADTLSRRYASWYQQKPGQAPVLLIFRDTSRPSGVPDRFSGSSSGDTATLTISGAQAGDEADYYCATSDGSGSNYQYVFGGGTQLTVTG | YES
